# protocol_details: High throughput Caco-2 permeability
# Format: in vitro ADME
# condition_context: human, Caco-2, pH 7.4; basolateral to apical, 10 µmol/l, 2 h
# Description: High throughput Caco-2 permeability was performed in the TranswellR 0.4 µm polycarbonate membrane 96-well system with modified methods. Caco-2 cells were maintained at 37 °C in a humidified incubator with an atmosphere of 5% CO2. […] The medium in the wells was exchanged each other day, and the trans epithelial electrical resistance (TEER) value was measured using an epithelial voltohm meter (Millipore, Billerica, Massachusetts). […]
Listed below: Papp B→A at 2 h, 10 µmol/l values for each entry.
# output: bare number, implied unit ×10⁻⁶ cm/s

>  <smiles_entry>
FC(F)(F)c1ccc2c(NCCCNCc3ccc4[nH]ccc4c3)ccnc2c1

>  <Papp B→A at 2 h, 10 µmol/l (×10⁻⁶ cm/s)>
14.2

$$$$

Papp B→A at 2 h, 10 µmol/l recorded for this molecule, "c1ccc2c(NCCCNCc3ccc4[nH]ccc4c3)ccnc2c1" , is 8.09

Papp B→A at 2 h, 10 µmol/l recorded for this molecule, "FC(F)(F)c1cc(-c2ccc3c(NCCCNCc4ccco4)ccnc3c2)cc(C(F)(F)F)c1" , is 0.079

Papp B→A at 2 h, 10 µmol/l recorded for this molecule, "CC(C)(C)c1ccc(-c2ccc3c(NCCCNCc4ccco4)ccnc3c2)cc1" , is 0.12

###

# tested_system: MAGE-A11:PCF11 interaction (GST-MAGE-A11 and FAM-PCF11_4) (Homo sapiens, UniProt P43364)
# Construct: GST-MAGE-A11 MHD (human MAGE-A11 MHD amino acid 218-429); made in house; host or cells: E. coli BL21(DE3)
# protocol_details: TR-FRET primary / single point screen at 15 µM
# Assay type: binding
# condition_context: single point TR-FRET screening of quinoline compounds against MAGE-A11:PCF11; 15 µM
Outcome: condition met for percent inhibition (TR-FRET) of at least 5; condition not met for anything lower.

>  <smiles_entry>
COc1ccc(CN(CCCNc2ccnc3cc(Cl)ccc23)Cc2ccccc2)cc1OC

>  <category>
condition not met

$$$$
>  <smiles_entry>
CCCN(CCCNc1ccnc2cc(Cl)ccc12)Cc1ccoc1

>  <category>
condition met

$$$$
>  <smiles_entry>
CCCN(CCCCCC(=O)OC)CCCNc1ccnc2cc(Cl)ccc12

>  <category>
condition met

$$$$

API: the following record is the query input.
Q: Given "CC(C)(C)c1ccc(Oc2ccc3c(NCCCNCc4ccco4)ccnc3c2)cc1" , state whether its percent inhibition (TR-FRET) is at least 5.
Result: condition met

###

Listed below: percent inhibition (TR-FRET) values for each entry.
# tested_system: MAGE-A11:PCF11 interaction (GST-MAGE-A11 and FAM-PCF11_4) (Homo sapiens, UniProt P43364)
# Construct: GST-MAGE-A11 MHD (human MAGE-A11 MHD amino acid 218-429); made in house; host or cells: E. coli BL21(DE3)
# protocol_details: TR-FRET primary / single point screen at 15 µM
# Type: binding
# condition_context: single point TR-FRET screening of 797 quinoline compounds against MAGE-A11:PCF11
Lab note: record the figure alone, no unit after it.

percent inhibition (TR-FRET) recorded for this molecule, COc1ccc2nc3cc(Cl)ccc3c(NCCCNCc3ccc(C)o3)c2c1 [SJ000361089] , is -229.025

percent inhibition (TR-FRET) recorded for this molecule, CCOc1ccc2ncc(S(=O)(=O)c3ccc(C)cc3)c(N3CCN(c4ccccc4)CC3)c2c1 [SJ000117049] , is -45.3213

percent inhibition (TR-FRET) recorded for this molecule, Clc1ccc2c(NC3CCN(Cc4ccccc4)CC3)ccnc2c1 [SJ000357524] , is 6.554

percent inhibition (TR-FRET) recorded for this molecule, COc1ccc2ncc(S(=O)(=O)c3ccc(C)c(C)c3)c(N3CCN(c4ccccc4)CC3)c2c1 [SJ000117051] , is -52.476

###

# tested_system: MAGE-A11:PCF11 interaction (GST-MAGE-A11 and FAM-PCF11_4) (Homo sapiens, UniProt P43364)
# Construct: GST-MAGE-A11 MHD (human MAGE-A11 MHD amino acid 218-429); made in house; host or cells: E. coli BL21(DE3)
# protocol_details: TR-FRET primary / single point screen at 15 µM
# Type: binding
# condition_context: single point TR-FRET screening of 797 quinoline compounds against MAGE-A11:PCF11
metric_name: percent inhibition (TR-FRET)
Lab note: record the figure alone, no unit after it.

>  <smiles_entry>
CCOC(=O)c1cnc2c(Cl)c(Cl)ccc2c1NCCN(C)C

>  <result_number>
2.575

$$$$
>  <smiles_entry>
COc1cccc(CN2CCC(Nc3ccnc4cc(Cl)ccc34)CC2)c1O

>  <result_number>
9.995

$$$$
>  <smiles_entry>
Clc1ccc2c(NC3CCN(Cc4ccc(Br)o4)CC3)ccnc2c1

>  <result_number>
-4.381

$$$$

percent inhibition (TR-FRET) recorded for this compound, "FC(F)(F)c1cccc(CN(CCCCNc2ccnc3cc(Cl)ccc23)Cc2ccccc2)c1" , is 26.3784

percent inhibition (TR-FRET) recorded for this compound, "CCCN(CCCCNc1ccnc2cc(Cl)ccc12)Cc1sccc1C" , is 6.494

###

# tested_system: MAGE-A11:PCF11 interaction (GST-MAGE-A11 and FAM-PCF11_4) (Homo sapiens, UniProt P43364)
# Construct: GST-MAGE-A11 MHD (human MAGE-A11 MHD amino acid 218-429); made in house; host or cells: E. coli BL21(DE3)
# Sequence (P43364 218-429): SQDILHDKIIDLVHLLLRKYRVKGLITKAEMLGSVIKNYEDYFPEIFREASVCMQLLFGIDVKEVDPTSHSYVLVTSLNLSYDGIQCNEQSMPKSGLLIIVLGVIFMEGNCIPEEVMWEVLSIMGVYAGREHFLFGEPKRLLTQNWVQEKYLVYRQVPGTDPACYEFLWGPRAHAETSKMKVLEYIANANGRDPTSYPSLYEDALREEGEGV
# protocol_details: TR-FRET primary / single point screen at 15 µM
# Format: binding
# condition_context: single point TR-FRET screening of quinoline compounds against MAGE-A11:PCF11; 15 µM
metric_name: percent inhibition (TR-FRET)
Lab note: record the figure alone, no unit after it.

Sample answers from the record:
>  <smiles_entry>
CC(C)(C)CCN(CCCNc1ccnc2cc(Cl)ccc12)Cc1ccccc1

>  <percent inhibition (TR-FRET)>
25.6873

$$$$
>  <smiles_entry>
O=[N+]([O-])c1ccccc1-c1ccc(CNCCCNc2ccnc3cc(Cl)ccc23)o1

>  <percent inhibition (TR-FRET)>
21.6545

$$$$
>  <smiles_entry>
CCCN(CCCNc1ccnc2cc(C(F)(F)F)ccc12)Cc1cc(OC)ccc1O

>  <percent inhibition (TR-FRET)>
25.2582

$$$$
>  <smiles_entry>
CCCN(CCCNc1ccnc2cc(Cl)ccc12)Cc1c(F)c(F)c(F)c(F)c1F

>  <percent inhibition (TR-FRET)>
19.8658

$$$$
>  <smiles_entry>
CCCCNCCCNc1ccnc2cc(Cl)ccc12

>  <percent inhibition (TR-FRET)>
8.4544

$$$$
>  <smiles_entry>
CCCN(CCCNc1ccnc2cc(C(F)(F)F)ccc12)Cc1c(F)cccc1C(F)(F)F

>  <percent inhibition (TR-FRET)>
11.4651

$$$$

Noted percent inhibition (TR-FRET) for "Fc1ccc(-c2ccc3c(NCCCNCc4ccco4)ccnc3c2)cc1" , tested on MAGE-A11:PCF11 interaction (GST-MAGE-A11 and FAM-PCF11_4) (Homo sapiens, UniProt P43364): 27.4287

Noted percent inhibition (TR-FRET) for "Cc1ccc(CN(CCCNc2ccnc3cc(Cl)ccc23)Cc2ccccc2)o1" , tested on MAGE-A11:PCF11 interaction (GST-MAGE-A11 and FAM-PCF11_4) (Homo sapiens, UniProt P43364): 2.84

Noted percent inhibition (TR-FRET) for "CCCN(CCCNc1c2ccc(Cl)cc2nc2ccc(OC)cc12)CC(C)C" , tested on MAGE-A11:PCF11 interaction (GST-MAGE-A11 and FAM-PCF11_4) (Homo sapiens, UniProt P43364): -21.3723

###

# tested_system: MAGE-A11:PCF11 interaction (GST-MAGE-A11 and FAM-PCF11_4) (Homo sapiens, UniProt P43364)
# Construct: GST-MAGE-A11 MHD (human MAGE-A11 MHD amino acid 218-429); made in house; host or cells: E. coli BL21(DE3)
# Sequence (P43364 218-429): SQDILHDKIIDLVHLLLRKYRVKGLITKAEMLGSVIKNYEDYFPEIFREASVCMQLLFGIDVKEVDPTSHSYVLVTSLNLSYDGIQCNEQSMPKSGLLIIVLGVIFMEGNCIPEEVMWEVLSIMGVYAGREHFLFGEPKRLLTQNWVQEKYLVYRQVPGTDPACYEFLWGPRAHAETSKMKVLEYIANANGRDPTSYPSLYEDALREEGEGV
# protocol_details: TR-FRET primary / single point screen at 15 µM
# Format: binding
# condition_context: single point TR-FRET screening of 797 quinoline compounds against MAGE-A11:PCF11
# Protocol: The TR-FRET assay buffer with a formula of 50 mM Tris pH 7.5, 20 mM MgCl2, 0.1 mg/ml BSA and 1 mM DTT was freshly prepared before each experiment. […] After incubation, the fluorescent emission signals at 520 nm and 490 nm channels of individual wells were measured with a PHERAstar FS plate reader (BMG Labtech; Durham, NC, USA) by using a 340 nm excitation filter, 100 µs delay time, and 200 µs integration time. […] The TR-FRET signals for individual wells were measured with a PHERAstar FS plate reader. […]
Outcome: YES for percent inhibition (TR-FRET) of at least 8; NO for anything lower.

Please review the entries below; each comes with its answer.
>  <compound>
CCOc1ccc2ncc(S(=O)(=O)c3ccc(OC)cc3)c(N3CCN(CC)CC3)c2c1 [SJ000083971]

>  <category>
NO

$$$$
>  <compound>
CCOc1ccc2ncc(S(=O)(=O)c3ccc(Cl)cc3)c(N3CCN(CC)CC3)c2c1 [SJ000083969]

>  <category>
NO

$$$$
>  <compound>
COc1ccc2nc3cc(Cl)ccc3c(NCCCNCc3nccs3)c2c1 [SJ000520989]

>  <category>
NO

$$$$
>  <compound>
CCCCCCN(CCCCNc1ccnc2cc(Cl)ccc12)Cc1ccccc1 [SJ000361212]

>  <category>
YES

$$$$
>  <compound>
CCc1ccc(S(=O)(=O)c2cnc3ccccc3c2N2CCN(C)CC2)cc1 [SJ000278939]

>  <category>
YES

$$$$
>  <compound>
CCCN(CCCNc1c2ccc(Cl)cc2nc2ccc(OC)cc12)CCC(C)(C)C [SJ000522983]

>  <category>
NO

$$$$

Q: Given COc1ccccc1CN(CCCCNc1ccnc2cc(Cl)ccc12)Cc1ccccc1 [SJ000522726] , state whether its percent inhibition (TR-FRET) is at least 8.
Result: YES

Q: Given CCOc1ccc2ncc(S(=O)(=O)c3ccccc3)c(N3CCN(CC)CC3)c2c1 [SJ000083959] , state whether its percent inhibition (TR-FRET) is at least 8.
Result: NO

Q: Given CCOc1ccc2ncc(S(=O)(=O)c3ccccc3)c(N3CCN(c4ccccc4)CC3)c2c1 [SJ000083975] , state whether its percent inhibition (TR-FRET) is at least 8.
Result: NO

Q: Given Cc1ccc2ncc(S(=O)(=O)c3ccccc3)c(N3CCN(C)CC3)c2c1 [SJ000083945] , state whether its percent inhibition (TR-FRET) is at least 8.
Result: NO

Q: Given CCOC(=O)c1cnc2c(C)c(Cl)ccc2c1NCCN(C)C [SJ000037393] , state whether its percent inhibition (TR-FRET) is at least 8.
Result: NO

Q: Given CCCN(CCCNc1c2ccc(Cl)cc2nc2ccc(OC)cc12)Cc1ccc(CC)cc1 [SJ000522972] , state whether its percent inhibition (TR-FRET) is at least 8.
Result: NO

Q: Given Cn1ccnc1CN(CCCCNc1ccnc2cc(Cl)ccc12)Cc1ccccc1 [SJ000520435] , state whether its percent inhibition (TR-FRET) is at least 8.
Result: NO

Q: Given Fc1ccc(CN(CCCCNc2ccnc3cc(Cl)ccc23)Cc2ccccc2)cc1F [SJ000361197] , state whether its percent inhibition (TR-FRET) is at least 8.
Result: YES

Q: Given CC(C)(C)CCN(CCCCNc1ccnc2cc(Cl)ccc12)Cc1ccccc1 [SJ000357537] , state whether its percent inhibition (TR-FRET) is at least 8.
Result: YES
